Recorded PBM binding z-score for the following sequences
# Test system: LXRb homodimer (NR concentration 270 nM)
# Test summary: PBM binding z-score (relative to random genomic background probes); higher = stronger binding; sequences stand for … in GC…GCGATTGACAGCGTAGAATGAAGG
Observable: PBM binding z-score

{"columns": ["Construct sequence", "Experimental result"],
 "data": [
  ["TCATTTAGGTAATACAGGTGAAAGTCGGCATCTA", 1.18],
  ["GCATATAGGTAATACAAGGTGAAAATCCGATTGT", -0.207],
  ["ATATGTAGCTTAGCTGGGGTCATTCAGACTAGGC", 0.639],
  ["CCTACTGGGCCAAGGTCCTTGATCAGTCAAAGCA", -1.31],
  ["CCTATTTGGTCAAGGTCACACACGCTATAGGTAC", 1.47],
  ["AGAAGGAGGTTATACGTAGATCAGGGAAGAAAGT", 0.303],
  ["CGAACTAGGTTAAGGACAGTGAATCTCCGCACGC", -0.661],
  ["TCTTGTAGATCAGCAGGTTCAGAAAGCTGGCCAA", -0.738],
  ["GGAACGAGGGCAAGTTGATAGCGGAGTTTGATGG", -0.525],
  ["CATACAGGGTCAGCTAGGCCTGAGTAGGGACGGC", 0.0921],
  ["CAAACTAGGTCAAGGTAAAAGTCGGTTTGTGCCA", 0.356],
  ["CCTACTGGGCCAAAAAGGTCATTGCTGCCGATAA", 0.236]
]}

====

# System: THRa:RXRa (NR concentration 90 nM, RXRa partner concentration 90 nM)
# Test summary: PBM binding z-score (relative to random genomic background probes); higher = stronger binding; sequences stand for … in GC…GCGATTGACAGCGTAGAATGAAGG

{"columns": ["Construct sequence", "Study system", "PBM binding z-score"],
 "data": [
  ["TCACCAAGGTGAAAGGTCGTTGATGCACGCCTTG", "THRa:RXRa (NR concentration 90 nM, RXRa partner concentration 90 nM)", 3.33],
  ["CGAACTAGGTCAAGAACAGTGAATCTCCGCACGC", "THRa:RXRa (NR concentration 90 nM, RXRa partner concentration 90 nM)", 2.33],
  ["ATCTCTAGGTAAAGATAGTTCAGTAAATGCAAAT", "THRa:RXRa (NR concentration 90 nM, RXRa partner concentration 90 nM)", 0.803],
  ["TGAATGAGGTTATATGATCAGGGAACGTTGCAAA", "THRa:RXRa (NR concentration 90 nM, RXRa partner concentration 90 nM)", 1.98],
  ["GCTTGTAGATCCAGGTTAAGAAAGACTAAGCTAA", "THRa:RXRa (NR concentration 90 nM, RXRa partner concentration 90 nM)", 0.485],
  ["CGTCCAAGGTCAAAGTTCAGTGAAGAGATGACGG", "THRa:RXRa (NR concentration 90 nM, RXRa partner concentration 90 nM)", 4.31],
  ["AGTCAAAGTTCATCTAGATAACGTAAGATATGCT", "THRa:RXRa (NR concentration 90 nM, RXRa partner concentration 90 nM)", 1.99],
  ["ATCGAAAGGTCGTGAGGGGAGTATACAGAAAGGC", "THRa:RXRa (NR concentration 90 nM, RXRa partner concentration 90 nM)", 2.72],
  ["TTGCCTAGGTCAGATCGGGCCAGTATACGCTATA", "THRa:RXRa (NR concentration 90 nM, RXRa partner concentration 90 nM)", 3.9],
  ["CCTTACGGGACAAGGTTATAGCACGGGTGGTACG", "THRa:RXRa (NR concentration 90 nM, RXRa partner concentration 90 nM)", 1.08],
  ["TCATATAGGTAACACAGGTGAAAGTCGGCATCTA", "THRa:RXRa (NR concentration 90 nM, RXRa partner concentration 90 nM)", 1.36],
  ["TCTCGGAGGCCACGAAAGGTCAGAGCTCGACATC", "THRa:RXRa (NR concentration 90 nM, RXRa partner concentration 90 nM)", 4.02]
]}
